Endpoint Label: pIC50
Please note pIC50 is a logarithmic value: minus log10 of concentration in mol/L. Answer with that number alone.

Recorded pIC50 for Cc1cn(-c2cc(NC(=O)c3ccc(C)c(/C=C/N4CNc5c(NC6CC6)ncnc54)c3)cc(C(F)(F)F)c2)cn1 on Tyrosine-protein kinase ABL1 (Homo sapiens, UniProt P00519) was 7.60

* * *

Assay System: Mitogen-activated protein kinase 10 (Homo sapiens)
Sequence (P53779 whole entry): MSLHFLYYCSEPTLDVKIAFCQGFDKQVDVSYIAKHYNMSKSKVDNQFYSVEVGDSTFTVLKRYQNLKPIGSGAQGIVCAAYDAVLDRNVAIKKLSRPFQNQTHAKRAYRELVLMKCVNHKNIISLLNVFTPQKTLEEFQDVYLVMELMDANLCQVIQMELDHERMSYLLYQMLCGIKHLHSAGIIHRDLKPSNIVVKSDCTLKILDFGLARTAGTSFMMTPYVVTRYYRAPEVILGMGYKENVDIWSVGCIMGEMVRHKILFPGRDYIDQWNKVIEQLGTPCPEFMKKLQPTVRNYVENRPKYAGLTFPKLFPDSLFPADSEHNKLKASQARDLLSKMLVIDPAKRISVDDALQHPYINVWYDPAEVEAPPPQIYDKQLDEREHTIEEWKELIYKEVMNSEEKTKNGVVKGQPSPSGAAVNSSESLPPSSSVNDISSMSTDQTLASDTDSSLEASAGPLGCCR
Protocol Text: Inhibition of JNK3
Endpoint Label: pIC50
Remember, pIC50 is on a log scale: it is -log10 of the molar concentration.

Reading of pIC50 for c1ccc(-c2noc(CN3CCCCC3)c2-c2ccnc(NC3CCCCC3)n2)cc1 with Mitogen-activated protein kinase 10 (Homo sapiens): 7.59
